tested on: LOC_OS01G13800-cb001; assay: thermal shift delta Tm vs DMSO control; higher = stronger stabilization (binding); settings: 12.5 µM; protein concentration 2 µM;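 note: purified Escherichia coli-expressed rice kinase domain construct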
# thermal shift delta Tm per record follows

[
  {
    "COMPOUND": "CO[C@H]1C[C@@H]2CC[C@@H](C)[C@@](O)(O2)C(=O)C(=O)N2CCCC[C@H]2C(=O)O[C@H]([C@H](C)C[C@@H]2CC[C@H](n3cnnn3)[C@H](OC)C2)CC(=O)[C@H](C)/C=C(\\C)[C@@H](O)[C@@H](OC)C(=O)[C@H](C)C[C@H](C)/C=C/C=C/C=C/1C [Zotarolimus(ABT-578)]",
    "thermal shift delta Tm [°C]": -0.04
  },
  {
    "COMPOUND": "COc1cc(OC)cc(N(CCNC(C)C)c2ccc3ncc(-c4cnn(C)c4)nc3c2)c1",
    "thermal shift delta Tm [°C]": 0.03
  },
  {
    "COMPOUND": "NC[C@@](O)(c1ccc(Cl)cc1)c1ccc(-c2cn[nH]c2)cc1",
    "thermal shift delta Tm [°C]": 0.5
  },
  {
    "COMPOUND": "O=C(O)c1ccc(Nc2ncc3c(n2)-c2ccc(Cl)cc2C(c2c(F)cccc2F)=NC3)cc1",
    "thermal shift delta Tm [°C]": 0.41
  },
  {
    "COMPOUND": "O=C(Nc1nccs1)C(c1cc(F)ccc1O)N1Cc2ccccc2C1=O (stereo not drawn)",
    "thermal shift delta Tm [°C]": -0.01
  },
  {
    "COMPOUND": "C=CC(=O)Nc1ccc2ncnc(Nc3cccc(Br)c3)c2c1",
    "thermal shift delta Tm [°C]": -0.18
  },
  {
    "COMPOUND": "CCN(CC)CCCC(C)Nc1ccnc2cc(Cl)ccc12 (stereo not drawn) [Chloroquine Phosphate]",
    "thermal shift delta Tm [°C]": 0.44
  },
  {
    "COMPOUND": "O=C(Cc1ccc(-c2ccc(OCCN3CCOCC3)cc2)cn1)NCc1ccccc1",
    "thermal shift delta Tm [°C]": -0.06
  },
  {
    "COMPOUND": "C[C@@H](Oc1cc(-n2cnc3ccc(CN4CCN(C)CC4)cc32)sc1C(N)=O)c1ccccc1C(F)(F)F",
    "thermal shift delta Tm [°C]": 0.56
  },
  {
    "COMPOUND": "Cc1ccc(NC(=O)c2ccc(CN3CC[C@H](N(C)C)C3)c(C(F)(F)F)c2)cc1Nc1nccc(-c2cncnc2)n1 [Bafetinib (INNO-406)]",
    "thermal shift delta Tm [°C]": 0.04
  },
  {
    "COMPOUND": "Cc1ccc(Nc2cc(N[C@@H]3CCCC[C@@H]3N)nnc2C(N)=O)nc1C",
    "thermal shift delta Tm [°C]": 0.15
  },
  {
    "COMPOUND": "Cn1cc(-c2ccc3nnc(C(F)(F)c4ccc5ncccc5c4)n3n2)cn1",
    "thermal shift delta Tm [°C]": 0.46
  },
  {
    "COMPOUND": "COc1cc2nccc(Oc3ccc(NC(=O)Nc4cc(C)on4)c(Cl)c3)c2cc1OC [Tivozanib (AV-951)]",
    "thermal shift delta Tm [°C]": 0.05
  }
]

---

test system: LOC_OS01G60330-cb001; experiment: thermal shift delta Tm vs DMSO control; higher = stronger stabilization (binding); settings: 12.5 µM; protein concentration 2 µM
Counter-ions that a name gives are not always drawn.

[
  {
    "COMPOUND": "O=C(Nc1cccnc1)c1cc(-c2ccnc(F)c2)ccc1OCc1ccccc1",
    "thermal shift delta Tm (°C)": 0.69
  },
  {
    "COMPOUND": "COCCOc1cnc2ccn([C@H](C)c3nnc4c(F)cc(-c5cnn(C)c5)cn34)c(=O)c2c1",
    "thermal shift delta Tm (°C)": -0.01
  },
  {
    "COMPOUND": "COc1cc(Nc2c(C#N)cnc3cc(OCCCN4CCN(C)CC4)c(OC)cc23)c(Cl)cc1Cl [Bosutinib (SKI-606)]",
    "thermal shift delta Tm (°C)": 1.47
  },
  {
    "COMPOUND": "O=C1NC(=O)/C(=C/c2cccc(C(F)(F)F)c2)S1",
    "thermal shift delta Tm (°C)": 0.3
  },
  {
    "COMPOUND": "O=c1cc(-c2ccccc2)oc2c(O)c(O)ccc12 [7,8-Dihydroxyflavone]",
    "thermal shift delta Tm (°C)": -0.01
  },
  {
    "COMPOUND": "CC(C)(CO)n1cc(C(=O)c2cncc(NC(=O)Cc3ccc(Cl)cn3)c2)c2cnc(N)nc21",
    "thermal shift delta Tm (°C)": 0.35
  },
  {
    "COMPOUND": "NCC(=O)Nc1ccc(-n2nc(C(F)(F)F)cc2-c2ccc3c(ccc4ccccc43)c2)cc1",
    "thermal shift delta Tm (°C)": 4.36
  },
  {
    "COMPOUND": "CN1CCCN(C(=O)c2cccc(-c3ccc(/C=C4/C(=O)Nc5ccc(Cl)cc54)o3)c2)CC1",
    "thermal shift delta Tm (°C)": 3.07
  },
  {
    "COMPOUND": "C[C@H](Nc1ncnc2nc[nH]c12)c1cc2cccc(Cl)c2c(=O)n1-c1ccccc1",
    "thermal shift delta Tm (°C)": 0.3
  },
  {
    "COMPOUND": "Cc1nc2c(-c3cnc(N)nc3)nc(N3CCOCC3)nc2n1C(C)C",
    "thermal shift delta Tm (°C)": 0.31
  },
  {
    "COMPOUND": "CONC(=O)c1ccccc1Nc1cc(Nc2cc(C)nn2C(C)C)ncc1Cl",
    "thermal shift delta Tm (°C)": 0.07
  },
  {
    "COMPOUND": "C=CC(=O)Nc1cc(Nc2nccc(-c3cn(C)c4ccccc34)n2)c(OC)cc1N(C)CCN(C)C",
    "thermal shift delta Tm (°C)": 1.07
  },
  {
    "COMPOUND": "Fc1ccc2[nH]ccc2c1-c1nc(N2CCOCC2)c2sc(CN3CCN(CC4CC4)CC3)cc2n1",
    "thermal shift delta Tm (°C)": 0.82
  },
  {
    "COMPOUND": "N#CCNC(=O)c1ccc(-c2ccnc(Nc3ccc(N4CCOCC4)cc3)n2)cc1",
    "thermal shift delta Tm (°C)": 6.73
  },
  {
    "COMPOUND": "C[C@H]1CNCCCN1S(=O)(=O)c1cccc2cncc(F)c12 [Ripasudil (K-115) hydrochloride dihydrate]",
    "thermal shift delta Tm (°C)": 1.17
  },
  {
    "COMPOUND": "CCN(CC)CCCC(C)Nc1nc(C)cc(Nc2ccc3nc(C)cc(N)c3c2)n1 (stereo not drawn)",
    "thermal shift delta Tm (°C)": 0.65
  },
  {
    "COMPOUND": "C[C@@H]1COC(Nc2ccc3ncnc(Nc4ccc(OCc5nccs5)c(Cl)c4)c3c2)=N1",
    "thermal shift delta Tm (°C)": 1.09
  },
  {
    "COMPOUND": "CCCCOc1c(C(=O)c2c(F)cc(C)cc2F)c[nH]c2nncc1-2",
    "thermal shift delta Tm (°C)": 0.86
  }
]

---

Test system: LOC_OS04G38480-cb003
Sequence (whole entry): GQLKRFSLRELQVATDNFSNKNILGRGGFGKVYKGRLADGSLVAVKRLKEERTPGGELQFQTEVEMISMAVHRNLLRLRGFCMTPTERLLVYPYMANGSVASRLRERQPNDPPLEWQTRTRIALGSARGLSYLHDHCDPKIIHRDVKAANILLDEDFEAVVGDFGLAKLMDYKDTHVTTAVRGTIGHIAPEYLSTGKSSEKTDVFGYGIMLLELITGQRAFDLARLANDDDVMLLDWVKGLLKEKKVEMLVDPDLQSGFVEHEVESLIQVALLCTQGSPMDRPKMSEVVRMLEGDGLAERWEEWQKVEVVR
Assay: thermal shift delta Tm vs DMSO control; higher = stronger stabilization (binding)
Settings: 12.5 µM; protein concentration 2 µM
Counter-ions that a name gives are not always drawn.
thermal shift delta Tm of 1 °C or higher: label 1. Under 1 °C: label 0.

[
  {
    "COMPOUND": "C=C[C@@](C)(/C=C/c1ccc(O)cc1)CCC=C(C)C",
    "ANSWER_LABEL": "label 0"
  },
  {
    "COMPOUND": "Cc1cc(Nc2cc(N3CCN(C)CC3)nc(Sc3ccc(NC(=O)C4CC4)cc3)n2)n[nH]1",
    "ANSWER_LABEL": "label 1"
  },
  {
    "COMPOUND": "CCN(CC)CCCC(C)Nc1nc(C)cc(Nc2ccc3nc(C)cc(N)c3c2)n1 (centres undefined)",
    "ANSWER_LABEL": "label 0"
  },
  {
    "COMPOUND": "CCn1nc(C2CCN(C(=O)CCO)CC2)nc1-c1cnc(N)c(-c2nnc(C(C)(C)C)o2)n1",
    "ANSWER_LABEL": "label 1"
  },
  {
    "COMPOUND": "CC(C)c1cnn2c(NCc3ccccc3)cc(NCCCCCCN)nc12",
    "ANSWER_LABEL": "label 0"
  },
  {
    "COMPOUND": "CCNC(=O)Nc1ccc(-c2nc3c(c(N4CCOC[C@@H]4C)n2)CCN(C2COC2)C3)cc1",
    "ANSWER_LABEL": "label 0"
  },
  {
    "COMPOUND": "C[C@@H]1COCCN1c1cc(C2([S@](C)(=N)=O)CC2)nc(-c2cc[nH]c3nccc2-3)n1",
    "ANSWER_LABEL": "label 0"
  },
  {
    "COMPOUND": "C[C@@H](Nc1cc(F)cc(F)c1)c1cc(C(=O)N(C)C)cc2c(=O)cc(N3CCOCC3)oc12",
    "ANSWER_LABEL": "label 1"
  },
  {
    "COMPOUND": "N#C/C(=C(/N)Sc1ccc(N)cc1)c1ccccc1C(F)(F)F",
    "ANSWER_LABEL": "label 0"
  },
  {
    "COMPOUND": "O=C1NC(=O)/C(=C/c2cccc(C(F)(F)F)c2)S1",
    "ANSWER_LABEL": "label 0"
  },
  {
    "COMPOUND": "CC(C)c1c2cc(-c3ccnc(NC4CCC(NC5CCOCC5)CC4)n3)ccc2nn1C (centres undefined)",
    "ANSWER_LABEL": "label 0"
  },
  {
    "COMPOUND": "COc1ccc(S(=O)(=O)N(C(C)=O)c2ccccc2/C=C/c2cc[n+]([O-])cc2)cc1",
    "ANSWER_LABEL": "label 0"
  },
  {
    "COMPOUND": "CC(C)(C)c1nc(-c2ccc(NC(=O)Nc3cccc(C(F)(F)F)c3)c3ccccc23)c2c(N)nccn12",
    "ANSWER_LABEL": "label 1"
  },
  {
    "COMPOUND": "O=C(O)CCC(=O)Nc1ccc(Br)cn1",
    "ANSWER_LABEL": "label 1"
  },
  {
    "COMPOUND": "COC(=O)c1ccc2c(c1)NC(=O)/C2=C(\\Nc1ccc(N(C)C(=O)CN2CCN(C)CC2)cc1)c1ccccc1",
    "ANSWER_LABEL": "label 0"
  },
  {
    "COMPOUND": "COc1cc(OC)cc(N(CCNC(C)C)c2ccc3ncc(-c4cnn(C)c4)nc3c2)c1",
    "ANSWER_LABEL": "label 1"
  },
  {
    "COMPOUND": "C[C@@H]1CN(C(=O)c2ccc(NC(=O)c3cc(O[C@H](C)c4c(Cl)ccc(F)c4Cl)c(N)nn3)cc2)C[C@H](C)N1",
    "ANSWER_LABEL": "label 1"
  },
  {
    "COMPOUND": "OCCn1cc(-c2cnc3nnn(Cc4ccc5ncccc5c4)c3n2)cn1",
    "ANSWER_LABEL": "label 0"
  },
  {
    "COMPOUND": "CNC(=O)c1ccccc1Nc1cc(Nc2ccc(N3CCOCC3)cc2OC)ncc1C(F)(F)F",
    "ANSWER_LABEL": "label 1"
  },
  {
    "COMPOUND": "Cc1cc(Nc2nc(N[C@@H](C)c3ncc(F)cn3)ncc2Cl)[nH]n1",
    "ANSWER_LABEL": "label 1"
  },
  {
    "COMPOUND": "CN1CC[C@H](c2c(O)cc(O)c3c(=O)cc(-c4ccccc4Cl)oc23)[C@H](O)C1 [Flavopiridol HCl]",
    "ANSWER_LABEL": "label 1"
  }
]
